Data provenance is PubChem BioAssay (NCI).

Listing: growth of selected compounds
Test system: TK-10 renal
Assay: NCI-60 one-dose screen, 48 h (100 = growth as untreated, 0 = no growth, -100 = all killed)
Conditions: 10 µM unless noted
This is part of a sample that, as a whole, favours compounds with a hit. Of some 83,000 tested, about 20% had one in any assay. Active and inactive are the calls of the source. Rule for the calls: active = growth percent below 10; inactive = the rest.

Past entries and their recorded results:
CCOc1ccccc1-n1c(CN2CCN(C(=O)COc3ccc(CNCCCCCCN4C5CCCC4CC(OC(=O)Nc4cc(C)ccc4OC)C5)cc3)CC2)nc2ccccc2c1=O (centres undefined) : -86.3% (active)
COC(=O)[C@]12CC[C@@H](C)[C@H](C)[C@@H]1C1=CC[C@@H]3[C@@]4(C)C(C=O)=C[C@@](C)(COC(C)=O)[C@@H]4C(=O)C[C@@]3(C)[C@]1(C)CC2 : 36.8% (inactive)
NC[C@H](O)c1ccc(O)c(O)c1 : 97.7% (inactive)

Query block: Recorded growth of "C=C(C)[C@@H]1CC[C@]2(C)[C@H](CC=C3[C@@H]4CC(C)(C)CC[C@]4(C(N)=O)CC[C@]32C)[C@@]1(C)CCC#N" , please.
Result block: 12.7% (inactive)

* * *

Tested on: HOP-62 NSCLC
Test: NCI-60 one-dose screen, 48 h
Details: 10 µM unless noted
This is part of a sample that, as a whole, favours compounds with a hit. Of some 83,000 tested, about 20% had one in any assay. Activity calls are given as the source filed them. How the source made its calls: active means growth percent below 10; inactive means the rest.
Answer with one of the outcomes true (1) for active, false (0) for inactive

O=C(/C=C/c1c(Cl)nc2sccn12)c1nccs1 : false (0)
O=[N+]([O-])c1ccc(OCCO)cc1 : false (0)
CC1CC2Oc3ccc(Cl)cc3C(=O)N2O1 (stereo not given) : false (0)
Cc1ccc(NS(=O)(=O)c2ccc3c(c2)C(=O)CC(c2ccc(C(=O)C(C)C)cc2)N3)cc1C (stereo not given) : false (0)

Query block: Hello, I am checking results. What call was entered for N#Cc1c2c(nn(-c3ccccc3)c1=O)C(O)=C([N+](=O)[O-])C(c1ccccc1)C2 (stereo not given) ?
Result block: false (0)

Query block: In this assay, the call recorded for "COc1ccc(-c2nc(SCC(=O)Nc3nc(-c4ccccc4)cs3)[nH]c(=O)c2C#N)cc1" was what?
Result block: false (0)

Query block: Which outcome did this test record for the compound "COc1cc(-c2n/c(=C\c3c(O)[nH]c4ccc(Cl)cc34)cc3c2=Nc2ccccc2-3)cc(OC)c1OC" ?
Result block: true (1)

Query block: // outcome(item) with item = "O=C1N=c2cc3c(cc2=C/C1=C/c1sc(=S)n(CCc2ccc(O)cc2)c1O)OCCO3"
Result block: false (0)

Query block: Hi team, can someone confirm the assay call for "COc1ccc(-c2cc(-c3cc(OC)c(OC)c(OC)c3)c(C#N)c(N3CCOCC3)n2)cc1O" ?
Result block: false (0)

Query block: Recorded test call requested for N#CC1=C(c2ccc(Br)cc2)NC(SCC(=O)c2ccc(Br)cc2)NC1=O (stereo not given)
Result block: false (0)

* * *

System: UACC-257 melanoma
Assay: NCI-60 one-dose screen, 48 h
Conditions: 10 µM unless noted
This is part of a sample that, as a whole, favours compounds with a hit. Of some 83,000 tested, about 20% had one in any assay. Calls of active or inactive are those of the source. The calls were made as follows: active = growth percent below 10; inactive = the rest.
Choose one outcome from this list and give only that: active, inactive

Consider the following illustrative entries.
Cc1cccc(NC(=O)CSc2nc3ccccc3[nH]2)c1 : inactive
COC(=O)[C@]12CC[C@@H](C)[C@H](C)[C@@H]1C1=CC[C@@H]3[C@@]4(C)C(C=O)=C[C@@](C)(COC(=O)/C=C/c5ccccc5)[C@@H]4[C@H](O)C[C@@]3(C)[C@]1(C)CC2 : active
O=[N+]([O-])c1ccc(OCCO)cc1 : inactive
N#C/C(=C\c1ccc(Br)cc1)n1nnc2cc(F)c(F)cc21 : inactive
CC(=O)C(C)Cc1cc2c(cc1C)C(C)(C)CCC2(C)C (stereo not given) : inactive

Query block: Each molecule tested received a call. Report the one for "CC(C)(C)c1ccc(/C=C/C(=O)Nc2ccc(O)cc2)cc1" .
Result block: inactive

Query block: Could you kindly confirm the outcome this assay logged for "NCCCNc1nc2ccccc2c2c(=O)c3cccc(Cl)c3sc12" ?
Result block: inactive

Query block: Can you look up the reported call for "COc1ccc2c(c1)C(=O)/C(=C/c1ccc(OCC(=O)Nc3nccs3)cc1)O2" for me?
Result block: inactive

Query block: Would you mind telling me which call this test gave "Cc1ccc(-c2c(-c3ccccc3)c(=O)oc3ccc(C)cc23)cc1" ?
Result block: inactive

Query block: Please state the recorded outcome for this molecule: "O=C(Nc1cccc(Oc2nnc(Cl)c3ccccc23)c1)Nc1ccc(Cl)c(C(F)(F)F)c1"
Result block: active

* * *

Test system: NCI-H23 lung
Assay: NCI-60 one-dose screen, 48 h (100 = growth as untreated, 0 = no growth, -100 = all killed)
Conditions: 10 µM unless noted
Compounds without any hit were thinned out: in the full panel of roughly 83,000, 20% have a hit.
Note: every record was labeled by where its growth sits among lowest = under 50%, middle = from 50% up to 90%, highest = 90% and over

COC(=O)[C@]12CC[C@@H](C)[C@H](C)[C@@H]1C1=CC[C@@H]3[C@@]4(C)C(C=O)=C[C@@](C)(COC(C)=O)[C@@H]4[C@H](O)C[C@@]3(C)[C@]1(C)CC2 : lowest
CCCCCCCCCCN(CCCCCCCCCC)CC(=O)c1ccc2cc(Br)c3ccccc3c2c1 : lowest
COc1ccc(-c2c(N)n[nH]c2-c2ccc(Cl)cc2O)cc1OC : middle
Cn1c(=O)c2[nH]c(NN)nc2n(C)c1=O : highest
NC1=NCc2nc3ccccc3c(=O)n2C1 : highest

Query block: Sort CC(=O)C(C)Cc1cc2c(cc1C)C(C)(C)CCC2(C)C (stereo not drawn) into one of the categories.
Result block: highest

Query block: Into which bin does this molecule go? "COc1ccc(/C=N\NC(=O)c2cc(-c3ccc(Br)cc3)n(-c3ccc(S(N)(=O)=O)cc3)n2)cc1"
Result block: middle

Query block: Band of OC(c1cccc(-n2ccc(C(F)(F)F)n2)c1)c1cnccc1NC1CCCCCC1 (stereo not drawn) ?
Result block: middle

Query block: Could you place "CCOC(CN=Cc1cc(C)c2[nH]c3ccccc3c2c1C)OCC" in its proper category? Many thanks.
Result block: highest

Query block: Which of the defined bands does the recorded growth of "Cc1ccc(N(C(=O)CCc2c[nH]c3ccccc23)[C@H](C(=O)Nc2ccc(Cl)cc2)c2cccc([N+](=O)[O-])c2)cc1" sit within?
Result block: highest

* * *

Tested on: NCI/ADR-RES ovarian
Assay: NCI-60 one-dose screen, 48 h (100 = growth as untreated, 0 = no growth, -100 = all killed)
Conditions: 10 µM unless noted
This is part of a sample that, as a whole, favours compounds with a hit. Of some 83,000 tested, about 20% had one in any assay.
MEASURED_PROPERTY: growth (%)
Write the value in % as a bare number.

Please review the following examples before continuing.
COc1cc(C2CC(c3cc(OC)c(OCCCOc4ccc(-n5c(/C=C/c6ccccc6)nc6ccccc6c5=O)cc4)c(OC)c3)=NO2)cc(OC)c1OC (centres undefined) : 107
COC(=O)/C=C1\S/C(=N\NS(=O)(=O)c2ccc(C)cc2)N(c2ccccc2)C1=O : 108
CCCCN(CCCC)CC(C)(C)C(O)c1ccc(OC)c2ccccc12 (centres undefined) : 49.3

Now let's try a different one.
Query block: Given the entry "CCCCn1c(=O)c2c(nc3n2CCCN3CCc2ccc(OCC(=O)NCCN(CC)CC)cc2)n(CCCC)c1=O" , what growth was observed with NCI/ADR-RES ovarian?
Result block: 60.7

* * *

Test system: MDA-MB-231 breast
Experiment: NCI-60 one-dose screen, 48 h
Settings: 10 µM unless noted
Compounds without any hit were thinned out: in the full panel of roughly 83,000, 20% have a hit. Activity calls are given as the source filed them. The calls were made as follows: active = growth percent below 10; inactive = the rest.
Respond only with the outcome that fits, drawn from active, inactive

Cc1ccc(Nc2ccc(Nc3ccc(C)cc3)c3c2C(=O)c2cccc(O)c2C3=O)cc1 : inactive
CCCc1cc2c(=O)c(C(=O)OC)c[nH]c2cc1N(CC)CC : inactive
C=CCSc1nc2ccccc2cc1/C=N/O : inactive
Cc1cc(Cl)nc(NCc2cc(Nc3ccnc4cc(Cl)ccc34)ccc2F)n1 : inactive
COc1ccc(-c2nc(SCCC(C)C)nc(N/N=C\c3cccc([N+](=O)[O-])c3)c2C#N)cc1 : inactive
CC(C)(C)C(CCc1ccc(Cl)cc1)N1CCN(C2CCCCC2)CC1 (centres undefined) : inactive
COc1ccc(-c2c(N)n[nH]c2-c2ccc(Cl)cc2O)cc1OC : inactive
CCN(CC)CCCCCCNc1cc(OC)c(Cl)c2cccnc12 : inactive
COc1cccc(-c2nn(-c3ccccc3)cc2-c2ccnc(NCCNC(=O)Nc3ccc(Cl)c(Cl)c3)c2)c1 : active
CC1OC(O[C@H]2/C=C/C=C/C=C/C=C/C=C/C=C/C=C/[C@H](C)[C@@H](O)[C@@H](C)[C@H](C)OC(=O)CC(O)CC(O)CCC(O)C(O)CC(O)C[C@]3(O)C[C@H](O)C(C(=O)O)C(C2)O3)C(O)[C@H](N)C1O (some centres undefined) : inactive

Query block: State the result this test recorded for "O=[N+]([O-])c1ccc(OCCO)cc1" .
Result block: inactive

Query block: Returns: the outcome recorded for "COc1ccc(/C=C/c2c(C(=O)/C=C/c3cccs3)c(C)nc3ccccc23)cc1" in this assay.
Result block: inactive

Query block: Hi, do you know how CC1O[C@@H](OC2[C@H](OC(=O)/C=C/c3ccc(O)c(O)c3)C(COC3O[C@H](C)C(O)C(O)[C@@H]3O)O[C@@H](OCCc3ccc(O)c(O)c3)[C@H]2O)[C@@H](O)C(O)[C@H]1O (some centres undefined) came out in this test?
Result block: inactive

Query block: Per the assay record, what outcome was assigned to "COc1ccc(N=C(c2ccccc2)C2C(=O)c3ccccc3C2=O)cc1" ?
Result block: inactive

Query block: Called result for Cc1c(C(=O)NC(Cc2ccccc2)C(O)C(=O)NCc2ccc(F)cc2)[nH]c2ccccc2c1=O (centres undefined)
Result block: inactive

Query block: Fill in: this test's call for "CC/C=C\C[C@H](O)C/C=C1/C(=O)C=C[C@@H]1C/C=C\CCCC(=O)OC" is ___
Result block: inactive
